Counter-ions that a name gives are not always drawn.
These records show pIC50 for GRK2 (Homo sapiens).
Give bare numbers, as −log10 of the molar value.

# annotated cases, reported pIC50 shown
# compound, system-name, pIC50
records = [
    ("O=C(Cc1cc([C@@H]2CCNC[C@H]2COc2ccc3c(c2)OCO3)ccc1F)NCc1ccccn1 [Example E05, hydrochloride]", "GRK2 (Homo sapiens)", 5.44),
    ("O=C(NCCc1cn[nH]c1)c1cc([C@@H]2CCNC[C@H]2COc2ccc3c(c2)OCO3)ccc1F [Example E08, hydrochloride]", "GRK2 (Homo sapiens)", 5.76),
    ("O=C(Cc1cc([C@@H]2CCNC[C@H]2COc2ccc3c(c2)OCO3)ccc1F)NCc1c(F)cccc1F [Example E01, hydrochloride]", "GRK2 (Homo sapiens)", 5.60),
    ("O=C(Cc1cc([C@@H]2CCNC[C@H]2COc2ccc3c(c2)OCO3)ccc1F)NCCc1c(F)cccc1F [Example E02, hydrochloride]", "GRK2 (Homo sapiens)", 6.38),
    ("O=C(Cc1cc([C@@H]2CCNC[C@H]2COc2ccc3c(c2)OCO3)ccc1F)NCCc1ccccn1 [Example E03, hydrochloride]", "GRK2 (Homo sapiens)", 5.44),
]

Below is a list of compounds. For each, state its recorded pIC50.
1. O=C(NCc1c(C(F)(F)F)cccc1C(F)(F)F)c1cc([C@@H]2CCNC[C@H]2COc2ccc3c(c2)OCO3)ccc1F [Example E14, hydrochloride]
2. Fc1ccc([C@@H]2CCNC[C@H]2COc2ccc3[nH]ncc3c2)cc1
3. COc1ccccc1CNC(=O)Cc1cc([C@@H]2CCNC[C@H]2COc2ccc3c(c2)OCO3)ccc1F [Example E06, hydrochloride]
4. O=C(NCc1c(Cl)cccc1Cl)c1cc([C@@H]2CCNC[C@H]2COc2ccc3c(c2)OCO3)ccc1F [Example E16, hydrochloride]
5. COc1cccc(OC)c1CNC(=O)c1cc([C@@H]2CCNC[C@H]2COc2ccc3c(c2)OCO3)ccc1F [Example E15, hydrochloride]

### Response
1: 6.11; 2: 7.15; 3: 6.19; 4: 5.92; 5: 5.86
